# Tested on: conscious spontaneously hypertensive rats
# ASSAY_INFO: Antihypertensive activity in conscious spontaneously hypertensive rats
# Type: in vivo, rat (spontaneously hypertensive Okamoto strain)
# CONDITION_LABEL: 0.5 mg/kg; 24 hours
ENDPOINT_LABEL: HR (beats/minute)
Numbers only, in beats/minute.

{"MOLECULE": "N=c1nc(N2CCCCC2)cc(N)n1O [Minoxidil, reference compound]", "TARGET_OF_ASSAY": "conscious spontaneously hypertensive rats", "READOUT_NUMBER": 400}
{"MOLECULE": "CCCC(C)(C)NC(=NC#N)Nc1cccnc1", "TARGET_OF_ASSAY": "conscious spontaneously hypertensive rats", "READOUT_NUMBER": 408}
{"MOLECULE": "CCC(C)(CC)NC(=NC#N)Nc1cccnc1", "TARGET_OF_ASSAY": "conscious spontaneously hypertensive rats", "READOUT_NUMBER": 413}
{"MOLECULE": "CC(C)(C)NC(=NC#N)Nc1cccnc1", "TARGET_OF_ASSAY": "conscious spontaneously hypertensive rats", "READOUT_NUMBER": 413}

Proceed to the following item.
Item: `CCC(CC)(CC)NC(=NC#N)Nc1cccnc1` | HR: 383

###

# ASSAY_INFO: in vivo
# CONDITION_LABEL: mouse, mice, oral, printed with (114-130)
ENDPOINT_LABEL: LD50 (mg/kg)
Numbers only, in mg/kg.

Value of LD50 reported for the compound NNc1nncc2ccccc12 [Hydralazine, reference compound] is 122
